Biological target: Glutamate receptor ionotropic, AMPA (Mus musculus) (UniProt P23819+P23818+Q9Z2W8+Q9Z2W9)
Sequence (P23818 whole entry, looked up): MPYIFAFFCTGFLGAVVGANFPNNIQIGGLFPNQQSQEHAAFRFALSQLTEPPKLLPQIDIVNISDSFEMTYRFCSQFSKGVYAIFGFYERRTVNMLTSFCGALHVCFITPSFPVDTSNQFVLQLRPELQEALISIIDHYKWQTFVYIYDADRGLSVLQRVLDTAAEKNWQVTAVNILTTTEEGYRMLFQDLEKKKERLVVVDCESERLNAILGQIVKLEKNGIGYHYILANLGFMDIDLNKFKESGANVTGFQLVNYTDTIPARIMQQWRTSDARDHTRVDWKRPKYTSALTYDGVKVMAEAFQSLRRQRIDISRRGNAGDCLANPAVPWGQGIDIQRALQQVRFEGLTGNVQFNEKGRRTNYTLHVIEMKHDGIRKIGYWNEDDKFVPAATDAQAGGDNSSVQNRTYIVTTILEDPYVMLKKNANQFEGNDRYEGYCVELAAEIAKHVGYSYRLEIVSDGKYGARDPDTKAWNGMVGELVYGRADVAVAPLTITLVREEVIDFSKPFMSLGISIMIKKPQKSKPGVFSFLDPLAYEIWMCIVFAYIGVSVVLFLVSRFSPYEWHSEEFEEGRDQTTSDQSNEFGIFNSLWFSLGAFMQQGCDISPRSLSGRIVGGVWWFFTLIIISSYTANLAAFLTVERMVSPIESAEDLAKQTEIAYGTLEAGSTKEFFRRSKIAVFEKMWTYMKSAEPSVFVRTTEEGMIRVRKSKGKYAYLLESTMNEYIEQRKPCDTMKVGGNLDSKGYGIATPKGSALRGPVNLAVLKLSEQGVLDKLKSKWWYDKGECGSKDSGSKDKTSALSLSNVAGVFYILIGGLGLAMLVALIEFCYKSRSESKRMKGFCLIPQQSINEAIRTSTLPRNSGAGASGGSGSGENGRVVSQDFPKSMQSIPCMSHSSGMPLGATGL
Sequence (P23819 whole entry, looked up): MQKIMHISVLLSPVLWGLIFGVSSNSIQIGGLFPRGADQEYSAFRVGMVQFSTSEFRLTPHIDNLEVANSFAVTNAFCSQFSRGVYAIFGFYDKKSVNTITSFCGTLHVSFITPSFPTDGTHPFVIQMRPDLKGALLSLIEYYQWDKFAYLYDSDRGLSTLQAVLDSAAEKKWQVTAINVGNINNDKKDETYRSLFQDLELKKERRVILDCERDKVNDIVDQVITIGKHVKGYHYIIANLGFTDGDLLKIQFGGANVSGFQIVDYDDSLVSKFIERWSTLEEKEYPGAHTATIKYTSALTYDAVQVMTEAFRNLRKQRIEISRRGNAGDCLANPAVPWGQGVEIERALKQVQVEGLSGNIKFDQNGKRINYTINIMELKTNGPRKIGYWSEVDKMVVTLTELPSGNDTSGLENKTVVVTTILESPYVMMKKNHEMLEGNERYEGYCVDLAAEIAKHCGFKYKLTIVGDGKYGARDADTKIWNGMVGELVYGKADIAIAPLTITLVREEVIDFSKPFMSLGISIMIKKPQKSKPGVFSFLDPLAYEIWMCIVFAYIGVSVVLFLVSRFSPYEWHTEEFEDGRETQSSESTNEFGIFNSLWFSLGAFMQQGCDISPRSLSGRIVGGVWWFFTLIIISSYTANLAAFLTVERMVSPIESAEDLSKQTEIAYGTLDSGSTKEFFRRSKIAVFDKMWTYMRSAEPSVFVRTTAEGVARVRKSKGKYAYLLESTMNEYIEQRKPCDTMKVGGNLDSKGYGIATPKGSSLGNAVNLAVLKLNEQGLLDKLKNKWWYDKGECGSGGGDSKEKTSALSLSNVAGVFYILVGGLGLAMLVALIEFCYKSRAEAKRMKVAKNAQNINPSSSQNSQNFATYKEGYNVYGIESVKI
Sequence (Q9Z2W8 whole entry, looked up): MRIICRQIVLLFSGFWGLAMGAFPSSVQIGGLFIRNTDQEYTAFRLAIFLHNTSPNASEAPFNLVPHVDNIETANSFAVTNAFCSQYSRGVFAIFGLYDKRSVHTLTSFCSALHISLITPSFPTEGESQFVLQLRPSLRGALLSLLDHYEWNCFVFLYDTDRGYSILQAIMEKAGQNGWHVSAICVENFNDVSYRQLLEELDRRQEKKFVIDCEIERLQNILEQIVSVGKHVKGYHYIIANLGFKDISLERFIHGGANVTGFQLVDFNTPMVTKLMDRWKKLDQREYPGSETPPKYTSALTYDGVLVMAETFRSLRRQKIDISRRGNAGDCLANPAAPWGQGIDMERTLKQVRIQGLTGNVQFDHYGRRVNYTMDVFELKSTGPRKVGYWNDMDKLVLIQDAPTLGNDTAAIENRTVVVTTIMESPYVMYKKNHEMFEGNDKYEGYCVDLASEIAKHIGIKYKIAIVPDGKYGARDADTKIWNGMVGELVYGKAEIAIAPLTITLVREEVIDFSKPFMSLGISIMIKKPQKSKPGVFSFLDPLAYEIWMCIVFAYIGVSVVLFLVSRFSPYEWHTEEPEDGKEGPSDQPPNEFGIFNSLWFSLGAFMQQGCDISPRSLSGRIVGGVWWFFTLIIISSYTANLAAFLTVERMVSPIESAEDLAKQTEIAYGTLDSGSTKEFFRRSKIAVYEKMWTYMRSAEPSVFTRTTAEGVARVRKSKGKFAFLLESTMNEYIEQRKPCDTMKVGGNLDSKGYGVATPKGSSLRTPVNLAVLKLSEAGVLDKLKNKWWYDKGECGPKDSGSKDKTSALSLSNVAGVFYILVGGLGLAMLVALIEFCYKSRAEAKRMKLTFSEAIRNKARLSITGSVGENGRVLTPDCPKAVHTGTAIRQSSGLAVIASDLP
Sequence (Q9Z2W9 whole entry, looked up): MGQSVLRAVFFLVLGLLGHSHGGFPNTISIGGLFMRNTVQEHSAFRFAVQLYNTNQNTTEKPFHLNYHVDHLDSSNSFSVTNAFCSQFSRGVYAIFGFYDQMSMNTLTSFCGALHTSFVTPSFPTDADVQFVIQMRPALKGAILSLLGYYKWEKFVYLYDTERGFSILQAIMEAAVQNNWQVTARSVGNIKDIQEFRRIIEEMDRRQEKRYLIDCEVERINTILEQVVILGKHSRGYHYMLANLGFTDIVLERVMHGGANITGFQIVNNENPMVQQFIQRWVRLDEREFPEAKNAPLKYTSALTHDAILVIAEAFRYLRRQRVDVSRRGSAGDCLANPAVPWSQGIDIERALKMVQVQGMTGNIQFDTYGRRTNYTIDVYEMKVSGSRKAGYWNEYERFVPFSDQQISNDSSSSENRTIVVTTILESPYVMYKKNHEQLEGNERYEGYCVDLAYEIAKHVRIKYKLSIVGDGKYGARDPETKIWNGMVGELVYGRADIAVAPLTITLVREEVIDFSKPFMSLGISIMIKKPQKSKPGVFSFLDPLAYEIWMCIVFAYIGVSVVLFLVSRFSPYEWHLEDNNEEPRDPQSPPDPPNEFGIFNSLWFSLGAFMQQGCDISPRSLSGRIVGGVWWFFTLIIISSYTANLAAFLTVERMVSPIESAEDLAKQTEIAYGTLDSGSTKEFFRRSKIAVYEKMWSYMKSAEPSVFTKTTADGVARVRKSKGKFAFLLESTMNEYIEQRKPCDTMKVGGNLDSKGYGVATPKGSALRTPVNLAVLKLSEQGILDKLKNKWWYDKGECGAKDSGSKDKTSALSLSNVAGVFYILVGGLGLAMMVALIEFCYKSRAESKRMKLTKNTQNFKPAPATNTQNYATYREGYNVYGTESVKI
Assay: In vivo anticonvulsant activity was measured as median effective dose required to prevent clonic phase of seizure in DBA/2 mice
Format: functional, organism-based
Rule: ED50 below 30 µmol/kg gives class 1. Equal to or above 30 µmol/kg gives class 0.

{"columns": ["test_smiles", "category_label"],
 "data": [
  ["COc1ccc2c(c1)CC(=O)N(C)N=C2c1ccccc1", "class 0"],
  ["COc1cc2c(O)nnc(-c3ccc(N)cc3)c2cc1OC", "class 0"],
  ["COc1cc2c(cc1OC)C(c1cccc(N)c1)=NN=C(S)C2", "class 1"],
  ["COc1cc2c(-c3cccc([N+](=O)[O-])c3)nn(C)c(=O)c2cc1OC", "class 0"],
  ["COc1cc2c(cc1OC)C(c1ccccc1)=NNC(=O)C2", "class 0"]
]}

----------
Target: Glutamate receptor ionotropic, AMPA (Mus musculus) (UniProt P23819+P23818+Q9Z2W8+Q9Z2W9)
Test: In vivo anticonvulsant activity was measured as median effective dose required to prevent tonic phase of seizure in DBA/2 mice
Assay type: functional, organism-based
metric: ED50 (µmol/kg)

{"columns": ["test_smiles", "metric", "value_observed"],
 "data": [
  ["COc1cc2c(cc1OC)C(c1ccc(N)cc1)=NN(C)C(=O)C2", "ED50", 43.7],
  ["COc1cc2c(-c3cccc([N+](=O)[O-])c3)nn(C)c(=O)c2cc1OC", "ED50", 80.3],
  ["COc1cc2c(cc1OC)C(c1ccc([N+](=O)[O-])cc1)=NN(C)C(=S)C2", "ED50", 81.5],
  ["COc1cc2c(cc1OC)C(c1ccc(N)cc1)=NN=C(S)C2", "ED50", 3.3]
]}

----------
Biological target: Glutamate receptor ionotropic, AMPA (Mus musculus) (UniProt P23819+P23818+Q9Z2W8+Q9Z2W9)
Assay: In vivo anticonvulsant activity was measured as median effective dose required to prevent clonic phase of seizure in DBA/2 mice
Format: functional, organism-based
Rule: ED50 below 60 µmol/kg gives yes (1). Equal to or above 60 µmol/kg gives no (0).

{"columns": ["compound", "category_label"],
 "data": [
  ["COc1cc2c(cc1OC)C(c1cccc([N+](=O)[O-])c1)=Nn1c(O)nnc1C2", "yes (1)"],
  ["SC1=NN=C(c2ccccc2)c2cc3c(cc2C1)OCO3", "yes (1)"],
  ["COc1cc2c(cc1OC)C(c1ccc(Cl)cc1)NCC2 (stereo unspecified)", "yes (1)"],
  ["COc1cc2c(cc1OC)C(c1ccc(Br)cc1)=NN(C)C(=S)C2", "no (0)"],
  ["COc1cc2c(cc1OC)C(c1ccc(N(C(C)=O)C(C)=O)cc1)=NN(C(C)=O)C(=O)C2", "yes (1)"],
  ["CCCNC(=O)n1nc(-c2ccc(N)cc2)c2cc3c(cc2c1=O)OCO3", "yes (1)"],
  ["O=C1Cc2cc3c(cc2C(c2ccccc2)=NN1)OCO3", "yes (1)"],
  ["COc1ccc2c(c1)CC(=O)NN=C2c1ccccc1", "no (0)"],
  ["COc1cc2c(cc1OC)C(c1ccccc1)=Nn1c(O)nnc1C2", "yes (1)"],
  ["Nc1cccc(C2=NNC(=O)Cc3cc4c(cc32)OCO4)c1", "yes (1)"],
  ["COc1cc2c(cc1OC)C(c1ccc(N)cc1)=NN=C(S)C2", "yes (1)"],
  ["COc1cc2c(cc1OC)C(c1cccc(N)c1)=NNC(=O)C2", "yes (1)"],
  ["O=C1Cc2cc3c(cc2C(c2ccc(O)cc2)=NN1)OCO3", "yes (1)"],
  ["COc1cc2c(cc1OC)C(c1ccc(Br)cc1)NCC2 (stereo unspecified)", "yes (1)"],
  ["COc1cc2c(cc1OC)C(c1ccc([N+](=O)[O-])cc1)=NN=C(S)C2", "no (0)"],
  ["COc1cc2c(cc1OC)C(c1ccc(N)cc1)=Nn1c(O)nnc1C2", "yes (1)"],
  ["COc1cc2c(-c3cccc(N)c3)nn(C)c(=O)c2cc1OC", "no (0)"],
  ["COc1cc2c(cc1OC)C(c1ccc([N+](=O)[O-])cc1)NCC2 (stereo unspecified)", "no (0)"],
  ["COc1cc2c(cc1OC)C(c1ccc(F)cc1)=NNC(=O)C2", "no (0)"],
  ["O=C1Cc2cc3c(cc2C(c2ccc(F)cc2)=NN1)OCO3", "no (0)"],
  ["COc1cc2c(cc1OC)C(c1ccccc1)=NN(C(C)=O)C(=O)C2", "no (0)"],
  ["CC1=NN=C(c2ccc(N)cc2)c2cc3c(cc2C1)OCO3", "yes (1)"],
  ["Nc1ccc(C2=NNC(=O)Cc3cc4c(cc32)OCO4)cc1", "yes (1)"],
  ["CNC(=O)n1nc(-c2ccc(N)cc2)c2cc3c(cc2c1=O)OCO3", "yes (1)"],
  ["COc1cc2c(cc1OC)C(c1ccc(Cl)cc1)=NN(C)C(=O)C2", "yes (1)"],
  ["COc1cc2c(O)nnc(-c3ccc(NC(C)=O)cc3)c2cc1OC", "no (0)"],
  ["CN1N=C(c2ccccc2)c2cc3c(cc2CC1=O)OCO3", "no (0)"],
  ["COc1cc2c(cc1OC)C(c1ccc(Br)cc1)=NNC(=O)C2", "no (0)"],
  ["COc1cc2c(cc1OC)C(c1ccccc1)=NN=C(S)C2", "yes (1)"],
  ["COc1cc2c(cc1OC)C(c1ccc(N)cc1)=Nn1cnnc1C2", "yes (1)"]
]}
